target: T1, human GPC3-His protein (human, UniProt P51654 25-559); assay: ELISA, coated human GPC3, antibody 0.0001 nM
T1 construct: Bought protein; also called human GPC3 protein; not shown: His tag
Catalogue of binders with associated OD450 nm
# number only, unit OD450 dropped from output

For orientation, consider the following solved cases.
binder	OD450 nm (OD450)
F1.153.1 human-murine chimeric antibody (antibody, human IgG1, kappa, V domains shown) VH: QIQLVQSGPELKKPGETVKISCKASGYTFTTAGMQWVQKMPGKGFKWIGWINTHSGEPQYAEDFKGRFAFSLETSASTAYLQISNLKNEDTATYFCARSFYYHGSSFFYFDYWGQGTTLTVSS VL: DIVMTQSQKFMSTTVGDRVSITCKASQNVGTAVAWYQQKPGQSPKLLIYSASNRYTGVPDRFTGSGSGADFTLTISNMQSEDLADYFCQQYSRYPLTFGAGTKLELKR	0.11
F1.9.19 human-murine chimeric antibody (antibody, human IgG1, kappa, V domains shown) VH: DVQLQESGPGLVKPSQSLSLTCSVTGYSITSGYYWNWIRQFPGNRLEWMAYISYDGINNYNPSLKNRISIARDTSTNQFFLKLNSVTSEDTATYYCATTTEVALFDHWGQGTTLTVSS VL: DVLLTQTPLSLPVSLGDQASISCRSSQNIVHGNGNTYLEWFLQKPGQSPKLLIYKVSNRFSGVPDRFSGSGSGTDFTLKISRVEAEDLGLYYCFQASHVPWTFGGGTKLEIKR	0.1

Proceed to the following item.
Give the measured OD450 nm of F4.18.4 human-murine chimeric antibody (antibody, human IgG1, kappa, V domains shown) VH: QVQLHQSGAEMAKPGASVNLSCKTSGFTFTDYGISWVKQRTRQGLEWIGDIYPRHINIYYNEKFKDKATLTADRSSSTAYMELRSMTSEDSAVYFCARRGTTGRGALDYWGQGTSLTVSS VL: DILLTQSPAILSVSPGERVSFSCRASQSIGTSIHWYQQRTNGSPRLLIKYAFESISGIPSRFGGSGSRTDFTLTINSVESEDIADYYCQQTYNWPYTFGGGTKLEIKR . 0.16
